// merged dataset of IC50 values, system = Prothrombin (Homo sapiens, UniProt P00734), multiple refs

## Input Consider the compound COc1ccccc1C(=O)n1nc(C2CCN(C(=O)N(C)C)CC2)nc1NCc1ccc(Cl)s1 and give its measured IC50.
## Output ≤ 0.1 µM

## Input Cool, now COc1ccccc1C(=O)n1nc(C2CCN(CC(F)(F)F)CC2)cc1NCc1ccc(Cl)s1
## Output 1 to 10 µM

## Input Cool, now N=C(N)NCCC[C@H](NC(=O)Cn1c(=O)c(NS(=O)(=O)Cc2ccccc2)cc2ccccc21)C(=O)c1nccs1
## Output 0.7 µM

## Input Cool, now N=C(N)c1nc2ccc(OC(=O)c3ccco3)cc2s1
## Output 0.025 µM

## Input Cool, now N=C(N)c1nc2ccc(OC(=O)c3cccs3)cc2s1
## Output 0.018 µM

## Input Cool, now CC1(C(=O)n2nc(C3(C)CCNC3=O)cc2NCc2ccc(Cl)s2)CCOCC1 (stereo not drawn)
## Output 0.1 to 1 µM

## Input Cool, now N=C(N)c1cn(CC(=O)Nc2ccc(C(=O)O)cc2)c2c(C=CC(=O)NC(Cc3ccc(O)cc3)C(=O)O)cccc12 (stereo not drawn)
## Output > 200 µM

## Input Cool, now N=C(N)c1cccc(-c2cc(COc3cccc(CN)c3)cc(C(=O)O)c2)c1
## Output > 100 µM

## Input Cool, now CC1(c2cc(NCc3ccc(Cl)s3)n(C(=O)c3ccsc3)n2)CCCNC1=O (stereo not drawn)
## Output 0.1 to 1 µM

## Input Cool, now Nc1nccc2cc(OCCC3CCCCN3C(=O)C(CC3CCCCC3)NCC(=O)NC3CCCC3)ccc12 (stereo not drawn)
## Output 0.32 µM

## Input Cool, now N=C(N)c1ccc(CNC(=O)Cc2c(-c3cccc(N)c3)ccc(NC3CCC3)[n+]2[O-])cc1
## Output 7.13 µM

## Input Cool, now O=C(N1CCC(c2n[nH]c(NCc3ccc(Cl)s3)c2F)CC1)C1(O)CC1
## Output 0.1 to 1 µM

## Input Cool, now COc1ccccc1C(=O)n1nc(C2CCCN2C(=O)OC(C)(C)C)nc1NCc1ccc(Cl)s1 (stereo not drawn)
## Output 0.1 to 1 µM

## Input Cool, now C[C@@H]1CCC[C@H](C)N1CCCCCN1C(=O)C(c2cc(C(=N)N)ccc2O)Cc2ccccc21 (stereo partly drawn)
## Output 1.14 µM

## Input Cool, now O=C(c1ccoc1)n1nc(-c2ccn(Cc3ccccn3)c(=O)c2)cc1NCc1ccc(Cl)s1
## Output < 0.1 µM

## Input Cool, now COc1ccc(C=CC(=O)Oc2ccc3cc(C(=N)N)ccc3c2)cc1OC
## Output 6 µM

## Input Cool, now CC(=N)N1CCC(Oc2ccc3c(c2)CC(=O)N3Cc2ccc3ccc(C(=N)N)cc3c2)CC1
## Output 72.5 µM

## Input Cool, now CN1CCN(C(=O)[C@H](CNC(=O)c2ccc(Cl)s2)NS(=O)(=O)c2cc(F)cc(N3CCCC3)c2Cl)CC1
## Output 0.019 µM

## Input Cool, now C=CCOC(=O)N1CCC(c2nn(C(=O)c3cscn3)c(NCc3ccc(Cl)s3)c2C)CC1
## Output < 0.1 µM

## Input Cool, now CC(C)(C)C(=O)n1nc(-c2ccn(Cc3ccccn3)c(=O)c2)cc1NCc1ccc(Cl)s1
## Output < 0.1 µM

## Input Cool, now CN(C)c1ccc(C(=O)Oc2ccc3cc(C(=N)N)ccc3c2)cc1
## Output 60 µM

## Input Cool, now O=C(CN1CCOCC1)N1CCCC1c1cc(NCc2ccc(Cl)s2)[nH]n1 (stereo not drawn)
## Output > 100 µM

## Input Cool, now COC(=O)c1ccc(-c2cccnc2)cc1-n1cc(C(=N)N)c2ccccc21
## Output 73.1 µM

## Input Cool, now CC1(c2cc(NCc3ccc(Cl)s3)n(C(=O)c3ccsc3)n2)CCCN1 (stereo not drawn)
## Output < 0.1 µM

## Input Cool, now Clc1ccc(CNc2cc(C3CCN(Cc4ncon4)CC3)n[nH]2)s1
## Output > 100 µM

## Input Cool, now COC(=O)C(Cc1cccc(C(=N)N)c1)NC(=O)c1ccc(OC2CCN(C(C)=N)CC2)cc1 (stereo not drawn)
## Output 270 µM

## Input Cool, now COc1ccccc1C(=O)n1nc(C2(C)CCCN2)cc1NCc1ccc(Cl)s1 (stereo not drawn)
## Output 0.1 to 1 µM

## Input Cool, now COc1ccccc1C(=O)n1nc(C2(C)CCCNC2=O)cc1NCc1ccc(Cl)s1 (stereo not drawn)
## Output 0.1 to 1 µM

## Input Cool, now CC(C)(C)OC(=O)N1CCC(c2cc(NCc3ccc(Cl)s3)n(C(=O)C(C)(C)CO)n2)CC1
## Output < 0.1 µM

## Input Cool, now CC(=N)N1CCC(Oc2ccc3c(c2)CCS(=O)(=O)N3Cc2ccc3ccc(C(=N)N)cc3c2)CC1
## Output 116 µM

## Input Cool, now COc1ccccc1C(=O)n1nc(C2CCN(S(=O)(=O)C3CCCCC3)CC2)nc1NCc1ccc(Cl)s1
## Output ≤ 0.1 µM

## Input Cool, now Clc1ccc(CNc2cc(C3CCN(Cc4cnn[nH]4)CC3)n[nH]2)s1
## Output > 100 µM

## Input Cool, now CC(C)(C)OC(=O)N1CCCC1c1n[nH]c(NCc2ccc(Cl)s2)n1 (stereo not drawn)
## Output ≥ 100 µM

---

// merged dataset of pIC50 values, system = UniProt:P00734, multiple refs
pIC50: −log10 of the molar value.
Label condition met when pIC50 is at or above 7; anything below gets condition not met.

## Input Does CC(C)(C)C(=O)n1nc(C2CCN(Cc3ccccc3)CC2)cc1NCc1ccc(Cl)s1 have a reported pIC50 of at least 7?
## Output condition met

## Input Cool, now CCn1c(CC[C@@H]2CCCN2C(=O)[C@H]2CCCN2)cc2ccc(C(=N)N)cc21
## Output condition met

## Input Cool, now C=CCOC(=O)N1CCCC(c2cc(NCc3ccc(Cl)s3)n(C(=O)C(C)(C)C)n2)CC1 (stereo not shown)
## Output condition met

## Input Cool, now CC(=N)N1CCC(Oc2ccc3c(c2)n(Cc2ccc4ccc(C(=N)N)cc4c2)c(=O)n3C(C)C)CC1
## Output condition not met

## Input Cool, now Cc1cc(C)c(C(=O)N[C@@H](Cc2ccc(F)c(F)c2)C(=O)NCc2ccc(N)nc2)[nH]1
## Output condition not met

## Input Cool, now CC(C)Nc1cnc(-c2cccnc2)n(CC(=O)NCc2ccc(C(=N)N)cc2)c1=O
## Output condition not met

## Input Cool, now C=CCOC(=O)N1CCN(CC(F)(F)F)CC1c1cc(NCc2ccc(Cl)s2)[nH]n1 (stereo not shown)
## Output condition not met

## Input Cool, now CCOC(=O)C(C(=O)N1CCC[C@H]1CCc1cc2ccc(C(=N)N)cc2n1CC)C1CCCC1 (stereo partly shown)
## Output condition met

## Input Cool, now N=C(N)c1ccc2cc(CC[C@H]3CCCN3C(=O)Cc3ccccc3)ccc2c1
## Output condition met

## Input Cool, now CCC(C)[C@@H](N)C(=O)N[C@@H](Cc1cccc(F)c1)C(=O)NCc1ccc(N)nc1 (stereo partly shown)
## Output condition not met

## Input Cool, now CCn1c(CC[C@@H]2CCCN2C(=O)C(CC(=O)O)NC2CC2)cc2ccc(C(=N)N)cc21 (stereo partly shown)
## Output condition met

## Input Cool, now CCOC(=O)C1CN(S(=O)(=O)c2ccc3cc(Cl)ccc3c2)CCN1C(=O)C1CCN(c2ccncc2)CC1 (stereo not shown)
## Output condition not met

## Input Cool, now O=c1ccc(-c2cc(NCc3ccc(Cl)s3)[nH]n2)c[nH]1
## Output condition not met

---

// merged dataset of pIC50 values, system = Prothrombin (Homo sapiens), multiple refs
pIC50: −log10 of the molar value.
Label Yes when pIC50 is at or above 5; anything below gets No.

## Input Does CCC(C)[C@H](C(=O)N[C@@H](Cc1ccc(Cl)c(Cl)c1)C(=O)NCc1ccc(N)nc1)N(C)C (stereo partly drawn) have a reported pIC50 of at least 5?
## Output No

## Input Cool, now CSc1ccc(N)cc1-c1c(Cl)nc(NC(C)C)c(=O)n1CC(=O)NCc1ccc(C(=N)N)cc1
## Output No

## Input Cool, now CCOC(=O)C(CC)N1CCC[C@@H]1C(=O)N1CCC[C@H]1CCc1cc2ccc(C(=N)N)cc2n1CC (stereo partly drawn)
## Output Yes

## Input Cool, now O=C(c1ccsc1)n1nc(-c2cc(Br)c[nH]c2=O)cc1NCc1ccc(Cl)s1
## Output Yes

## Input Cool, now CS(=O)(=O)N1CCC(c2cc(NCc3ccc(Cl)s3)[nH]n2)CC1
## Output No

## Input Cool, now CCOC(=O)CN(C1CC1)C(C)C(=O)N1CCC[C@H]1CCc1cc2ccc(C(=N)N)cc2n1CC (stereo partly drawn)
## Output Yes

## Input Cool, now CS(=O)(=O)N1CCCC(c2cc(NCc3ccc(Cl)s3)[nH]n2)CC1 (stereo not drawn)
## Output No

## Input Cool, now N=C(N)c1ccc(C(=O)Nc2ccc3c(c2)OCC(=O)N3Cc2ccc3ccc(C(=N)N)cc3c2)cc1
## Output No

## Input Cool, now CC(C)Nc1nc(Cl)c(-c2cccc(N)c2)n(CC(=O)NCC2CCC(C(=N)N)C=N2)c1=O (stereo not drawn)
## Output No

## Input Cool, now COCc1nn(Cc2ccc(Cn3ccccc3=O)cc2)cc1C(=O)NCc1ccccc1-n1cnnn1
## Output No

## Input Cool, now CC(C)OC(=O)C(=O)C(CCCCN)NC(=O)C1CCCN1C(=O)C(NS(=O)(=O)Cc1ccccc1)C(c1ccccc1)c1ccccc1 (stereo not drawn)
## Output Yes

## Input Cool, now N=C(N)c1ccc(CNC(=O)Cc2c(-c3ccccc3)ccc(NCCc3ccccc3)c2F)cc1
## Output Yes

## Input Cool, now CC(C)(C)OC(=O)N1CCC(C)(c2cc(NCc3ccc(Cl)s3)n(C(=O)C3(C)CCOCC3)n2)CC1
## Output Yes
